- ASSAYED SYSTEM: T1, GV27 peptide (ER-α36 c-terminal 27 aa) (human)
- T1 construct: also called 27 aa peptide (F domain); 27-amino acid peptide derived from the F domain of ER-α36
- T1 peptide: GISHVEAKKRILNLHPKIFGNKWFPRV
- PROTOCOL: Biacore; table head says human ER-α36, analyte taken as the GV27 peptide of Example 5
PROPERTY NAME: kon (M⁻¹ s⁻¹)

INSERT INTO assay_data (binder, measured_value) VALUES
  ('SNGHZD (C3L + C5H) (antibody, human IgG1, kappa, V domains shown, Humanized antibody, human IgG1/kappa; also called humanized SNGmB1 variant C3L + C5H) VH: QVQLVQSGAEVKKPGASVKVSCKASGYTFTSHNMHWVRQAPGQGLEWIGAIHPVNGDTAYNQKFKGKATLTVDKSTSTAYLELSSLRSEDTAVYYCAREGYGSVDYWGQGTLVTVSS VL: ETTVTQSPAFMSATPGDKVNISCITSTDIDDDMNWYQQKPGEAPILIISEGNTLRPGIPPRFSGSGYGTDFTLTINNIESEDAAYYFCLQSDNLPLTFGQGTKLEIKR', '3.54e+06'),
  ('SNGHZD (C3L + C6H) (antibody, human IgG1, kappa, V domains shown, Humanized antibody, human IgG1/kappa; also called humanized SNGmB1 variant C3L + C6H) VH: QVQLVQSGAEVKKPGASVKVSCKASGYTFTSHNMHWVRQAPGQGLEWIGAIHPVNGDTAYNQKFKGKATLTVDKSTSTAYMELSSLRSEDTAVYYCAREGYGSVDYWGQGTLVTVSS VL: ETTVTQSPAFMSATPGDKVNISCITSTDIDDDMNWYQQKPGEAPILIISEGNTLRPGIPPRFSGSGYGTDFTLTINNIESEDAAYYFCLQSDNLPLTFGQGTKLEIKR', '1.33e+06'),
  ('SNGHZD (C1L + C5H) (antibody, human IgG1, kappa, V domains shown, Humanized antibody, human IgG1/kappa, expressed in 293E6 cells; also called humanized SNGmB1 variant C1L + C5H) VH: QVQLVQSGAEVKKPGASVKVSCKASGYTFTSHNMHWVRQAPGQGLEWIGAIHPVNGDTAYNQKFKGKATLTVDKSTSTAYLELSSLRSEDTAVYYCAREGYGSVDYWGQGTLVTVSS VL: ETTVTQSPAFMSATPGDKVNISCITSTDIDDDMNWYQQKPGEAPILIISEGNTLRPGIPPRFSSSGYGTDFTLTINNIESEDAAYYFCLQSDNLPLTFGQGTKLEIKR', 744000);
